target: Beta-3 adrenergic receptor (Homo sapiens, UniProt P13945); assay: Displacement of [125I]iodocyanopindolol from human adrenergic beta-3 receptor at 10 uM
Sequence (P13945 whole entry, looked up): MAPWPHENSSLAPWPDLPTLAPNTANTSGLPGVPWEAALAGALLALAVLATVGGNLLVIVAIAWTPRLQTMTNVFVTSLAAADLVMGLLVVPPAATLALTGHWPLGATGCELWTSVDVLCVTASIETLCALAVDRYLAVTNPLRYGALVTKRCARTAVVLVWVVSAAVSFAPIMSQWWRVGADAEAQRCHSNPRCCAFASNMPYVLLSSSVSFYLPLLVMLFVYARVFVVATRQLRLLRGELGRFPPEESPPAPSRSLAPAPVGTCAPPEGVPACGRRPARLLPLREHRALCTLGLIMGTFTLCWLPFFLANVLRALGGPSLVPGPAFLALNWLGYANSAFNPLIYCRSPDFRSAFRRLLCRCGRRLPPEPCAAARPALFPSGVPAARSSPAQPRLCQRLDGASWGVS
Decide by inhibition: equal to or exceeding 30% means 1, less means -1.

Query :: Say whether CC(NCC(O)COc1ccc2c(c1)CCCN2Cc1ccccc1)c1ccccc1 (stereo not given) shows inhibition of 30% or more.
Result :: -1

Query :: Can you check Clc1ccc(CCNCCCOc2ccc3c(c2)CCCN3Cc2ccccc2)cc1 next?
Result :: 1

Query :: Can you check CN(Cc1ccccc1)CC(O)COc1ccc2c(c1)CCCN2Cc1ccccc1 (stereo not given) next?
Result :: -1

Query :: Can you check OC(COc1ccc2c(c1)CCCN2Cc1ccccc1)CN1CCN(c2ccccc2)CC1 (stereo not given) next?
Result :: 1

Query :: Can you check COc1ccc(CCN(CC(O)COc2ccc3c(c2)CCCN3)C(=O)OC(C)(C)C)cc1OC (stereo not given) next?
Result :: -1

Query :: Can you check Cc1ccc(N2CCN(CC(O)COc3ccc4c(c3)CCCN4Cc3ccccc3)C(C)C2)cc1 (stereo not given) next?
Result :: -1

Query :: Can you check OC(COc1ccc2c(c1)CCCN2Cc1ccccc1)CN1CCC(Cc2ccccc2)CC1 (stereo not given) next?
Result :: -1

---

target: Beta-3 adrenergic receptor (Homo sapiens); test: Displacement of [125I]iodocyanopindolol from human adrenergic beta-3 receptor at 10 uM
QUANTITY NAME: inhibition
Phrase the answer as number then unit, nothing more needed.

COc1ccc(CCNCC(O)COc2ccc3c(c2)CCCN3)cc1OC (stereo not drawn) | 56.5%

Working through the 2 molecules below one at a time, give inhibition for each.
1. COc1ccc(CCNCC(O)COc2ccc3c(c2)CCCN3S(=O)(=O)c2ccccc2)cc1OC (stereo not drawn)
2. OC(COc1ccc2c(c1)CCCN2Cc1ccccc1)CN1CCN(c2ccccn2)CC1 (stereo not drawn)

Result ::
["38.9%", "12.7%"]

---

Kindly supply the reported inhibition values for the records listed here.
biological target: Beta-3 adrenergic receptor (Homo sapiens); assay: Displacement of [125I]iodocyanopindolol from human adrenergic beta-3 receptor at 10 uM
Phrase the answer as number then unit, nothing more needed.

Illustrative cases are given below, each with its answer.
O=[N+]([O-])c1ccc(N2CCN(CC(O)COc3ccc4c(c3)CCCN4Cc3ccccc3)CC2)cc1 (stereo not given) | 4.13%
COc1ccc(N2CCN(CCCOc3ccc4c(c3)CCCN4Cc3ccccc3)CC2)cc1 | 1.95%
COc1ccc(CCN(CC(O)COc2ccc3c(c2)CCCN3Cc2ccccc2)C(=O)OC(C)(C)C)cc1OC (stereo not given) | 46.7%
COc1ccc(CNCC(O)COc2ccc3c(c2)CCCN3Cc2ccccc2)cc1 (stereo not given) | 27.4%

// moving on: another record for inhibition
Query :: Given the entry OC(COc1ccc2c(c1)CCCN2Cc1ccccc1)CN1CCN(c2ccc(Cl)c(Cl)c2)CC1 (stereo not given) , report its measured inhibition.
Result :: 0.28%

---

biological target: Beta-3 adrenergic receptor (Homo sapiens, UniProt P13945); assay: Displacement of [125I]iodocyanopindolol from human adrenergic beta-3 receptor at 1 uM
QUANTITY NAME: inhibition (%)
Give bare numbers, in %.

Illustrative cases are given below, each with its answer.
OC(COc1ccc2c(c1)CCCN2Cc1ccccc1)CN1CCN(c2ccc(F)cc2)CC1 (configuration not stated) | 49.7
CCCCN(CCCC)CC(O)COc1ccc2c(c1)CCCN2Cc1ccccc1 (configuration not stated) | 4.09
COc1ccc(CCNCC(O)COc2ccc3c(c2)CCCN3Cc2ccccc2)cc1 (configuration not stated) | 56.2
OC(CNCc1ccccc1)COc1ccc2c(c1)CCCN2Cc1ccccc1 (configuration not stated) | 1.81
OC(COc1ccc2c(c1)CCCN2Cc1ccccc1)CN1CCN(Cc2ccc3c(c2)OCO3)CC1 (configuration not stated) | -5.28
OC(COc1ccc2c(c1)CCCN2Cc1ccccc1)CN1CCN(Cc2ccccc2)CC1 (configuration not stated) | -0.84

// moving on: another record for inhibition
Query :: Given the entry CN(Cc1ccccc1)CC(O)COc1ccc2c(c1)CCCN2Cc1ccccc1 (configuration not stated) , report its measured inhibition.
Result :: -4.54

Sourced from ChEMBL document CHEMBL1140856
